study target: Receptor tyrosine-protein kinase erbB-2 (Homo sapiens)
Sequence (P04626 whole entry): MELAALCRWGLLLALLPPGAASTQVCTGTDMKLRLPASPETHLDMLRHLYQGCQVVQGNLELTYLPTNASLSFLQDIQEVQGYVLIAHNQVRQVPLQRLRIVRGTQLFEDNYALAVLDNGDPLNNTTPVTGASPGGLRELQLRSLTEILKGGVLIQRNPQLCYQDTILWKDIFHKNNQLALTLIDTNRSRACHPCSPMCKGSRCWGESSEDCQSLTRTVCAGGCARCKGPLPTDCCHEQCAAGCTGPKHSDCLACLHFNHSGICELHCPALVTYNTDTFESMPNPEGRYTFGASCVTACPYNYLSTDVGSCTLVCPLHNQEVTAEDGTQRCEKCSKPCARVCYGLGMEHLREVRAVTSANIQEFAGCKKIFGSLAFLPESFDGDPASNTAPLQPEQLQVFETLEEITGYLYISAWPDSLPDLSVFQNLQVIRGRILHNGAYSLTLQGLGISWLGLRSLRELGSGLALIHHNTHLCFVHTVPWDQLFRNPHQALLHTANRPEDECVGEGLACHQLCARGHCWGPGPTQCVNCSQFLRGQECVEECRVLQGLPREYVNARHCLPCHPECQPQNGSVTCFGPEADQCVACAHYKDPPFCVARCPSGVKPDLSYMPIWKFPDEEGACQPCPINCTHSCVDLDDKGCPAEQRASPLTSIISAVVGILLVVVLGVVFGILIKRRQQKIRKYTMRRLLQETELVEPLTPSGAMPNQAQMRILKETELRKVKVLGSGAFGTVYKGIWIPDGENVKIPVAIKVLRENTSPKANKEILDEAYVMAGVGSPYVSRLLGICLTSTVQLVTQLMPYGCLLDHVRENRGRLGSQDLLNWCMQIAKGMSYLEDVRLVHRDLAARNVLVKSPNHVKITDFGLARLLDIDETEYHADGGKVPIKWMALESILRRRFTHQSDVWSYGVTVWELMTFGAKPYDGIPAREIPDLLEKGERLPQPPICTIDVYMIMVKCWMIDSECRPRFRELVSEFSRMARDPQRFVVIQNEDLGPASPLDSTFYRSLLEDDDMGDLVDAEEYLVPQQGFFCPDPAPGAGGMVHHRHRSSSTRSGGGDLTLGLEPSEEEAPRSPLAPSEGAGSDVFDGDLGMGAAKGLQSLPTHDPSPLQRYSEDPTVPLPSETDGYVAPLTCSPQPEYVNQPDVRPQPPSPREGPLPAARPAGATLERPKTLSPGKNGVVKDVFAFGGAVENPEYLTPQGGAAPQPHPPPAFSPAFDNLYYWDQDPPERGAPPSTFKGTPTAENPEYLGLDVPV
measured metric: IC50 (nM)

Solved entries:
-- ask # lookup: IC50 of CN1CCN(CCC#CC(=O)Nc2cc3c(Nc4ccc(F)c(Cl)c4)ncnc3cn2)CC1
-- reply 1

-- ask Item: CCN(CC)CC#CC(=O)Nc1cc2c(Nc3ccc(F)c(Cl)c3)ncnc2cn1
-- reply 116

-- ask Now the molecule CC(C)N(CC#CC(=O)Nc1cc2c(Nc3ccc(F)c(Cl)c3)ncnc2cn1)C(C)C
-- reply 36

-- ask Now consider CCN(CC)CC#CC(=O)Nc1ccc2ncnc(Nc3ccc(F)c(Cl)c3)c2c1 and answer again.
-- reply 7.5

-- ask Also O=C(C#CCN1CCOCC1)Nc1cc2c(Nc3ccc(F)c(Cl)c3)ncnc2cn1 ?
-- reply 22

(P) CC#CC(=O)Nc1cc2c(Nc3ccc(F)c(Cl)c3)ncnc2cn1
(Q) O=C(C#CCCN1CCCCC1)Nc1cc2c(Nc3ccc(F)c(Cl)c3)ncnc2cn1
(R) CN1CCN(CCC#CC(=O)Nc2cc3c(Nc4ccc(F)c(Br)c4)ncnc3cn2)CC1
(S) CCCC#CC(=O)Nc1cc2c(Nc3ccc(F)c(Cl)c3)ncnc2cn1
-- ask Put these in order: smallest IC50 first, largest last. Labels, ranked as asked.
-- reply Q, R, P, S
(Q: 2 nM, R: 3.5 nM, P: 24 nM, S: 170 nM)

###

study target: Epidermal growth factor receptor (Homo sapiens)
Sequence (P00533 whole entry): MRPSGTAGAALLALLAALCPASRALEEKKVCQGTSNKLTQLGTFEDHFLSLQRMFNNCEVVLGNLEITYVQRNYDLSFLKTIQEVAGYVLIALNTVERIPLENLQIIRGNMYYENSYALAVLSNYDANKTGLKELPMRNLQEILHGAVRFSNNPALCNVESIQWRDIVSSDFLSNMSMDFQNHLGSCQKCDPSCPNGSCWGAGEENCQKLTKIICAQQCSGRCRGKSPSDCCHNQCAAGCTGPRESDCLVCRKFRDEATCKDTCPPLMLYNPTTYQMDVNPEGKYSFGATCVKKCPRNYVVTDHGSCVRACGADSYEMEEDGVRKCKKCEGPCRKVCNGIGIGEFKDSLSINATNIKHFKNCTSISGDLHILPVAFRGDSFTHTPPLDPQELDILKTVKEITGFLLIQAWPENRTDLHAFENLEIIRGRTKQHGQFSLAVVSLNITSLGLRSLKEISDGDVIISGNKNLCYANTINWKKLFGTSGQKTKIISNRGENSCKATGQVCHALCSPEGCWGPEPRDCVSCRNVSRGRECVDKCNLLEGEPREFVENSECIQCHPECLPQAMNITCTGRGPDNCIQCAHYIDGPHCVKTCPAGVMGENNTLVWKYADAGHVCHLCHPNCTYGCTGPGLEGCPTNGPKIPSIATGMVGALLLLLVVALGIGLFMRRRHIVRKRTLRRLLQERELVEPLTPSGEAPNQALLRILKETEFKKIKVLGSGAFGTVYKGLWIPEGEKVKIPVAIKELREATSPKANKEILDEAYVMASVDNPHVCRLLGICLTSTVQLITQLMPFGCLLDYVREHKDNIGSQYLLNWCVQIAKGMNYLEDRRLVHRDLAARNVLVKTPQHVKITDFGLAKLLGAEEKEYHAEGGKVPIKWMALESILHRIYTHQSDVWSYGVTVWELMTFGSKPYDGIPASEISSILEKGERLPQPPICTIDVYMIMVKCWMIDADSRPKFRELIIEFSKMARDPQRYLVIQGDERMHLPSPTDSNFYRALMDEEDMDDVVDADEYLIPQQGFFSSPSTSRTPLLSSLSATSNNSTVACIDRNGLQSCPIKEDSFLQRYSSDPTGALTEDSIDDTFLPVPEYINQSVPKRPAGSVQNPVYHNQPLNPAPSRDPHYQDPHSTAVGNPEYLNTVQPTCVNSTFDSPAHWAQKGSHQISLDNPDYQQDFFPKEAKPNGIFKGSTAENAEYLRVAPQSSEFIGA
assay procedure: Inhibition of EGF stimulated human erbB1 autophosphorylation in NIH3T3 cells
pIC50: −log10 of the molar value.
measured metric: pIC50

Solved entries:
-- ask Look up pIC50: O=C(C#CCN1CCOCC1)Nc1cc2c(Nc3ccc(F)c(Cl)c3)ncnc2cn1
-- reply 7.85

-- ask Item: O=C(C#CCCN1CCOCC1)Nc1ccc2ncnc(Nc3ccc(F)c(Cl)c3)c2c1
-- reply 7.92

-- ask Field entry: CCCCN(CC#CC(=O)Nc1ccc2ncnc(Nc3ccc(F)c(Cl)c3)c2c1)CCCC
-- reply 7.96

(I) C#CC(=O)Nc1cc2c(Nc3cccc(Br)c3)ncnc2cn1
(II) O=C(C#CCCN1CCOCC1)Nc1cc2c(Nc3ccc(F)c(Cl)c3)ncnc2cn1
(III) CCN(CC)CC#CC(=O)Nc1cc2c(Nc3ccc(F)c(Cl)c3)ncnc2cn1
(IV) O=C(C#CCCN1CCCCC1)Nc1cc2c(Nc3ccc(F)c(Cl)c3)ncnc2cn1
-- ask Arrange items by their pIC50 values in increasing order. Give the labels in the order requested.
-- reply III, I, IV, II
(III: 7.32, I: 7.82, IV: 8.37, II: 8.74)

###

assay procedure: Half life in rat at 5 mg/kg, iv
Assay type: ADME, organism-based
Design: dose 5 mg/kg, route intravenous
conditions: in vivo
measured metric: half-life (min)
All answers are understood in min, so give the number only.

-- ask half-life lookup needed for CN1CCN(CCC#CC(=O)Nc2cc3c(Nc4ccc(F)c(Cl)c4)ncnc3cn2)CC1 , thanks.
-- reply 49.8

###

assay procedure: Volume of distribution in monkey at 5 mg/kg, iv
Format: ADME, organism-based, Macaca mulatta
Design: dose 5 mg/kg, route intravenous
conditions: rhesus monkey, in vivo, read-out: Vdss
measured metric: Vd (L/kg)
Report the value in L/kg with no unit label.

-- ask Dear colleague, I am looking for the recorded Vd of the following compound: CN1CCN(CCC#CC(=O)Nc2cc3c(Nc4ccc(F)c(Cl)c4)ncnc3cn2)CC1
-- reply 1.7
